Tested on: latent HIV in HIV latent primary CD4+ T cells
Test: Latent virus reactivation by plate-coated anti-BTN3A antibody plus anti-CD3, Nano-Glo Luciferase Assay
Type: cell-based, HIV-1
Conditions: with anti-CD3, Yes/No
Measurement Label: Antibody function HIV reactivation

3B (antibody, V domains shown) VH: QVQLVQSGAEVKKPGASVKVSCKASGYTFTSYYMHWVRQAPGQGLEWMGIINPSGGSTSYAQKFQGRVTMTRDTSTSTVYMELSSLRSEDTAVYYCARPSGDYSGYDALDVWGQGTMVTVSS VL: EIVLTQSPATLSLSPGERATLSCRASQSVSSYLAWYQQKPGQAPRLLIYDASNRATGIPARFSGSGSGTDFTLTISSLEPEDFAVYYCQQDPYWPITFGGGTKVEIK: Yes
2A (antibody, V domains shown) VH: QVQLVQSGAEVKKPGASVKVSCKASGYTFTSYYIHWVRQAPGQGLEWMGIINPSGGSTSYAQKFQGRVTMTRDTSTSTVYMELSSLRSEDTAVYYCARATWEALHYWGQGTLVTVSS VL: EIVMTQSPATLSVSPGERATLSCRASQSVGSNLAWYQQKPGQAPRLLIYGASTRATGIPARFSGSGSGTEFTLTISSLQSEDFAVYYCQQYYAWPRTFGGGTKVEIK: Yes
1G (antibody, V domains shown) VH: QVQLVQSGAEVKKPGASVKVSCKASGYTFTSYGISWVRQAPGQGLEWMGWISAYNGNTNYAQKLQGRVTMTTDTSTSTAYMELRSLRSDDTAVYYCARLGATVAYFDLWGRGTLVTVSS VL: EIVLTQSPATLSVSPGERATLSCRASQSVSSNLAWYQQKPGQAPRLLIYGASTRATGIPARFSGSGSGTEFTLTISSLQSEDFAVYYCQQDVYWPFTFGGGTKVEIK: No
3A (antibody, V domains shown) VH: QVQLVQSGAEVKKPGASVKVSCKASGYTFTSYYMHWVRQAPGQGLEWMGIINPGGGSTSYAQKFQGRVTMTRDTSTSTVYMELSSLRSEDTAVYYCARDAGHDYGDMAYWGQGTLVTVSS VL: DIQMTQSPSTLSASVGDRVTITCRASQSISSWLAWYQQKPGKAPKLLIYKASSLESGVPSRFSGSGSGTEFTLTISSLQPDDFATYYCQQYRSFPTFGGGTKVEIK: Yes
